test system: M14 melanoma; assay: NCI tumour cell line growth inhibition, 48 h; in the data active = GI50 below about 0.43 µM; inactive = the rest
Pick from active, inactive when you respond.

Ask | Which result was noted for this molecule in the test: CC(=O)O[C@H](C[C@H](C(C)C)N(C)C(=O)[C@@H](NC(=O)[C@H]1CCCCN1C)C(C)C)c1nc(C(=O)N[C@@H](Cc2ccccc2)C[C@H](C)C(=O)O)c(C)s1
Reply | active

Ask | Which result was noted for this molecule in the test: CCCCCCCCCCCCCOC(=O)c1c(C)[nH]c(/C=C2\N=C(c3ccc[nH]3)C=C2OC)c1C
Reply | active

Ask | Which result was noted for this molecule in the test: CN(C)CC/C=C1\c2ccccc2Sc2ccc(Cl)cc21
Reply | inactive

Ask | Which result was noted for this molecule in the test: CCc1ccc(C2=C/C(=C/c3ccc(Cl)cc3)C(=O)N2CCc2ccc(S(N)(=O)=O)cc2)cc1
Reply | inactive

Ask | Which result was noted for this molecule in the test: COc1ccc(C(=S)c2cc(OC)c(OC)c(OC)c2)cc1OC(=O)CCl
Reply | active

Ask | Which result was noted for this molecule in the test: O=c1oc2ccc(Cl)cc2c(=O)n1-c1ccc(Cl)cc1F
Reply | inactive

Ask | Which result was noted for this molecule in the test: Nc1ncc(-c2cnn(C3CCNCC3)c2)cc1-c1nc2ccccc2o1
Reply | inactive

Ask | Which result was noted for this molecule in the test: CCOC(=O)[C@H](CSSc1ncnc2cc[nH]c12)NC(=O)[C@@H](C)c1ccc2cc(OC)ccc2c1
Reply | active

Ask | Which result was noted for this molecule in the test: COc1cc(N2CCC(N3CCN(C)CC3)CC2)ccc1Nc1ncc(Cl)c(Nc2ccccc2P(C)(C)=O)n1
Reply | inactive

Where do the numbers come from? From PubChem BioAssay (NCI).
